# Target entity: fused protein of DNA-binding domain of yeast transcription factor with ligand-binding domain of human type PPAR α (Homo sapiens, UniProt Q07869)
# Sequence (Q07869 239-466 limits assumed): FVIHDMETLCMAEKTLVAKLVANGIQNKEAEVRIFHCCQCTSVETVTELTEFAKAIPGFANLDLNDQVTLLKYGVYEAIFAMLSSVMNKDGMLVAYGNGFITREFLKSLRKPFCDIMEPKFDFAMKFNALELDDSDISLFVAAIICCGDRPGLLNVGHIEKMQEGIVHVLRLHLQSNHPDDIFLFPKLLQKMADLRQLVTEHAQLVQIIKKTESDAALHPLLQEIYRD
# Test description: Test of transactivation on peroxisome proliferator-activated receptor α (CHO cells, reporter assay)
# Condition details: read-out: Transactivation PPARα EC50; CHO cells, cotransfected receptor and reporter plasmid, 24 hours, CAT activity
Measure name: EC50
Could you give the number and then its unit, please?

Req: Query (molecule): CCCCC/C=C\C/C=C\C=C\[C@@H](O)C/C=C\CCCC(=O)O [(8S)-HETE, reference compound] ; field requested: EC50
Resp: 1300 nM

---

# Target entity: fused protein of DNA-binding domain of yeast transcription factor with ligand-binding domain of human type PPAR γ (Homo sapiens, UniProt P37231)
# Sequence (P37231 238-503 limits assumed): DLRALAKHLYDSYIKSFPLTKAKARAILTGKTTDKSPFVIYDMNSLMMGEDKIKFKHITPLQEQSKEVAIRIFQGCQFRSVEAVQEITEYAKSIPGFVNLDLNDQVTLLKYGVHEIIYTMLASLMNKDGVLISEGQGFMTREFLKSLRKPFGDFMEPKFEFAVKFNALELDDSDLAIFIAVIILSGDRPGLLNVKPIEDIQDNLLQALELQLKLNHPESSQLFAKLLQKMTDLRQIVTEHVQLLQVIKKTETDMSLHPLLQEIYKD
# Test description: Test of transactivation on peroxisome proliferator-activated receptor γ (CHO cells, reporter assay)
Collected pEC50 values appear next to each entry.
For clarity, pEC50 is expressed as the negative log10 of concentration in mol/L.

Worked examples follow.
COc1ccc(CC2SC(=O)NC2=O)cc1C(=O)NCc1cccnc1 (stereo not shown) ... 6.02
COc1ccc(CC2SC(=O)NC2=O)cc1C(=O)NCc1ccncc1 (stereo not shown) ... 6.85
COc1ccc(CC2SC(=O)NC2=O)cc1C(=O)NCc1ccccn1 (stereo not shown) ... 6.52

Please turn your attention to the following entry.
Req: Query (molecule): COc1ccc(CC2SC(=O)NC2=O)cc1C(=O)NCC1CCCCC1 (stereo not shown) ; field requested: pEC50
Resp: 6.64
